Measured values drawn from BigSolDB 2.1 for this set.

details: in ethyl formate, 313.15 K
MEASURED_METRIC: solubility (mole fraction)
Provide a numeric answer; units are not to be included.

Cc1c(Cl)cccc1Nc1ccccc1C(=O)O has a reported solubility (mole fraction) of 0.00833

----------
settings: in acetonitrile, 288.15 K
MEASURED_METRIC: solubility (mole fraction)
Just the number.

Query Cc1c(Cl)cccc1Nc1ccccc1C(=O)O yields solubility (mole fraction) of 0.000339

----------
conditions: in n-pentanol, 323.15 K
MEASURED_METRIC: solubility (mole fraction)
Give your answer as a number; write no unit.

Lab note: measured solubility (mole fraction) of Cc1c(Cl)cccc1Nc1ccccc1C(=O)O was 0.0206

----------
conditions: in cyclohexane, 288.15 K
MEASURED_METRIC: solubility (mole fraction)
Answer using only a numeral; do not append any unit.

solubility (mole fraction) in this record for Cc1c(Cl)cccc1Nc1ccccc1C(=O)O : 4.31e-05

----------
conditions: in ethylene glycol, 308.15 K
MEASURED_METRIC: solubility (mole fraction)
Answer as a number with no unit attached.

# solubility (mole fraction) (compound: Cc1c(Cl)cccc1Nc1ccccc1C(=O)O ) is 0.000406

----------
settings: in n-pentyl acetate, 293.15 K
MEASURED_METRIC: solubility (mole fraction)
Answer field: number only, no words.

Lab note: measured solubility (mole fraction) of Cc1c(Cl)cccc1Nc1ccccc1C(=O)O was 0.00931

----------
settings: in n-pentanol, 283.15 K
MEASURED_METRIC: solubility (mole fraction)
The answer should be a number; do not append a unit.

In plain terms, Cc1c(Cl)cccc1Nc1ccccc1C(=O)O has a documented solubility (mole fraction) of 0.00335

----------
settings: in DMF, 288.15 K
MEASURED_METRIC: solubility (mole fraction)
Enter a number only.

The value of solubility (mole fraction) measured for the compound Cc1c(Cl)cccc1Nc1ccccc1C(=O)O turned out to be 0.00892

----------
conditions: in n-heptanol, 283.15 K
MEASURED_METRIC: solubility (mole fraction)
Number only, no unit.

solubility (mole fraction) in this record for Cc1c(Cl)cccc1Nc1ccccc1C(=O)O : 0.00557

----------
conditions: in n-hexanol, 298.15 K
MEASURED_METRIC: solubility (mole fraction)

Entry Cc1c(Cl)cccc1Nc1ccccc1C(=O)O — recorded solubility (mole fraction) = 0.0094

----------
conditions: in n-hexanol, 328.15 K
MEASURED_METRIC: solubility (mole fraction)
// no unit string in output, number only

Field solubility (mole fraction) (entry Cc1c(Cl)cccc1Nc1ccccc1C(=O)O ) reads 0.0295

----------
details: in DMF, 308.15 K
MEASURED_METRIC: solubility (mole fraction)
Please state the value as a number alone, without comment.

solubility (mole fraction) reading for Cc1c(Cl)cccc1Nc1ccccc1C(=O)O : 0.0241

----------
conditions: in cyclohexane, 328.15 K
MEASURED_METRIC: solubility (mole fraction)
Number, no unit, nothing else.

Field solubility (mole fraction) (entry Cc1c(Cl)cccc1Nc1ccccc1C(=O)O ) reads 0.000515

----------
conditions: in ethyl acetate, 303.15 K
MEASURED_METRIC: solubility (mole fraction)
Answer field: number only, no words.

The reported value for Cc1c(Cl)cccc1Nc1ccccc1C(=O)O in terms of solubility (mole fraction) is 0.0162

----------
conditions: in ethyl acetate, 328.15 K
MEASURED_METRIC: solubility (mole fraction)
Keep the answer to the number alone.

// Cc1c(Cl)cccc1Nc1ccccc1C(=O)O : solubility (mole fraction) value = 0.0458

----------
conditions: in DMF, 283.15 K
MEASURED_METRIC: solubility (mole fraction)

Just so you know, measured solubility (mole fraction) for Cc1c(Cl)cccc1Nc1ccccc1C(=O)O came out at 0.00652

----------
conditions: in acetonitrile, 283.15 K
MEASURED_METRIC: solubility (mole fraction)
Note: the reply should be a number with no unit written.

The reported solubility (mole fraction) of the molecule Cc1c(Cl)cccc1Nc1ccccc1C(=O)O was 0.000228

----------
details: in n-hexanol, 313.15 K
MEASURED_METRIC: solubility (mole fraction)

So for Cc1c(Cl)cccc1Nc1ccccc1C(=O)O , the logged solubility (mole fraction) turned out to be 0.0176

----------
settings: in n-hexanol, 288.15 K
MEASURED_METRIC: solubility (mole fraction)
Could you respond with only the numeric value?

Cc1c(Cl)cccc1Nc1ccccc1C(=O)O yielded solubility (mole fraction) of 0.00581

----------
conditions: in ethylene glycol, 318.15 K
MEASURED_METRIC: solubility (mole fraction)

In plain terms, Cc1c(Cl)cccc1Nc1ccccc1C(=O)O has a documented solubility (mole fraction) of 0.000717

----------
details: in acetonitrile, 323.15 K
MEASURED_METRIC: solubility (mole fraction)

Please fill in: solubility (mole fraction) reported for Cc1c(Cl)cccc1Nc1ccccc1C(=O)O = 0.00221

----------
conditions: in acetonitrile, 308.15 K
MEASURED_METRIC: solubility (mole fraction)
API note: the answer field is a bare number with no unit suffix.

For reference, reported solubility (mole fraction) for Cc1c(Cl)cccc1Nc1ccccc1C(=O)O stands at 0.00107

----------
conditions: in DMF, 298.15 K
MEASURED_METRIC: solubility (mole fraction)
In your answer, state the number alone without any accompanying words.

solubility (mole fraction) reading for Cc1c(Cl)cccc1Nc1ccccc1C(=O)O : 0.0152

----------
settings: in ethyl formate, 283.15 K
MEASURED_METRIC: solubility (mole fraction)

Query Cc1c(Cl)cccc1Nc1ccccc1C(=O)O yields solubility (mole fraction) of 0.00169

----------
details: in n-pentyl acetate, 288.15 K
MEASURED_METRIC: solubility (mole fraction)
Please reply with the number alone, leaving off any unit.

Value of measured solubility (mole fraction) for the entry Cc1c(Cl)cccc1Nc1ccccc1C(=O)O : 0.00726

----------
conditions: in n-pentyl acetate, 298.15 K
MEASURED_METRIC: solubility (mole fraction)
Number, no unit, nothing else.

The reported solubility (mole fraction) of the compound Cc1c(Cl)cccc1Nc1ccccc1C(=O)O was 0.0116

----------
conditions: in ethyl formate, 303.15 K
MEASURED_METRIC: solubility (mole fraction)
// print number alone

Kindly note the recorded solubility (mole fraction) for Cc1c(Cl)cccc1Nc1ccccc1C(=O)O , which is 0.00506

----------
conditions: in acetonitrile, 303.15 K
MEASURED_METRIC: solubility (mole fraction)

So for Cc1c(Cl)cccc1Nc1ccccc1C(=O)O , the logged solubility (mole fraction) turned out to be 0.000808

----------
conditions: in ethylene glycol, 283.15 K
MEASURED_METRIC: solubility (mole fraction)

solubility (mole fraction) reported for this molecule Cc1c(Cl)cccc1Nc1ccccc1C(=O)O : 8.74e-05

----------
details: in 1,4-dioxane, 308.15 K
MEASURED_METRIC: solubility (mole fraction)

For reference, reported solubility (mole fraction) for Cc1c(Cl)cccc1Nc1ccccc1C(=O)O stands at 0.0444

----------
settings: in n-hexanol, 318.15 K
MEASURED_METRIC: solubility (mole fraction)
Output: the number by itself.

Record Cc1c(Cl)cccc1Nc1ccccc1C(=O)O . Reported solubility (mole fraction): 0.021

----------
conditions: in DMSO, 298.15 K
MEASURED_METRIC: solubility (mole fraction)
Please give the numeric answer without any surrounding text.

Reported solubility (mole fraction) of Cc1c(Cl)cccc1Nc1ccccc1C(=O)O : 0.0186

----------
details: in DMF, 303.15 K
MEASURED_METRIC: solubility (mole fraction)

Form field solubility (mole fraction), entry Cc1c(Cl)cccc1Nc1ccccc1C(=O)O : 0.019

----------
settings: in ethyl formate, 323.15 K
MEASURED_METRIC: solubility (mole fraction)
The response must contain the number and no unit.

The compound listed as Cc1c(Cl)cccc1Nc1ccccc1C(=O)O has a reported solubility (mole fraction) of 0.0131

----------
details: in n-pentanol, 303.15 K
MEASURED_METRIC: solubility (mole fraction)
Reply: number alone, nothing else.

Measured solubility (mole fraction), Cc1c(Cl)cccc1Nc1ccccc1C(=O)O : 0.00916

----------
details: in n-pentanol, 328.15 K
MEASURED_METRIC: solubility (mole fraction)
Form rule: numeric answer, no unit written next to it.

The reported value for Cc1c(Cl)cccc1Nc1ccccc1C(=O)O in terms of solubility (mole fraction) is 0.0243

----------
conditions: in ethyl formate, 293.15 K
MEASURED_METRIC: solubility (mole fraction)
The answer should be a number; do not append a unit.

Record Cc1c(Cl)cccc1Nc1ccccc1C(=O)O , field solubility (mole fraction): 0.00311

----------
conditions: in DMSO, 328.15 K
MEASURED_METRIC: solubility (mole fraction)
The answer should be a number; do not append a unit.

Sample Cc1c(Cl)cccc1Nc1ccccc1C(=O)O ; solubility (mole fraction) observed: 0.0571
